assay.target: T1, human mature TGFβ2 (PeproTech) (Homo sapiens, UniProt P61812)
T1 construct: Transforming Growth Factor-beta 2, human, mature form (cut from the precursor); also called TGFb2; source: bought: PeproTech
T1 sequence (P61812 303-414): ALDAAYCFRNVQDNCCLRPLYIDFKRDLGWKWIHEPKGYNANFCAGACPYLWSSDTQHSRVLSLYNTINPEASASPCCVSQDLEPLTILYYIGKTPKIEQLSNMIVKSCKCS
experiment.notes: SPR; Biacore T200; antibody captured on a Protein A sensor chip (about 90 RU); mature TGFβ isoform injected, five-fold dilutions 0.008 nM to 5 nM; HBS-EP pH 7.4, 150 mM NaCl; 37 °C; 100 μl/min; 3 min association, 60 min dissociation; one-to-one Langmuir model, global fit
particulars: both partners purified
recorded.endpoint: Kd (nM)

1) humanized 4A11 variant 5 (antibody, V domains shown, as the VH of m7 (h4A11.v2): rbt4A11 CDRs and rabbit Vernier residues grafted on human germline IGHV3-48*01; as the VL of m12 (h4A11.v7): rbt4A11 CDRs and rabbit Vernier residues grafted on human germline IGKV3-20*01; human IgG1; also called h4A11.v5; v5; source: Expi293F, transient, purified (Protein A, SEC)) VH: EQQLVESGGGLVQPGGSLRLSCAVSGFSLSSYTVNWVRQAPGKGLEWIGYISYGGSAYYASWANGRFTISKDSAKNSVYLQMNSLRAEDTAVYFCARHMQVGGAPTGSMAAFDPWGPGTLVTVSS VL: EAVLTQSPGTLSLSPGERATLSCQSSQSVYNNNYLSWFQQKPGQPPRLLIYGASTLTSGVPDRFSGSGSGTDFTLTISRLEPEDFAVYYCAGGYSGSSDKYAFGGGTKVEIK : 0.0121
